In this section we review reported binding signal values for a set of sequences.
# ASSAY_SYSTEM: OsWRKY34 (Oryza sativa, UniProt Q0JBA9 1-250)
# Sequence (Q0JBA9 entry or part of it): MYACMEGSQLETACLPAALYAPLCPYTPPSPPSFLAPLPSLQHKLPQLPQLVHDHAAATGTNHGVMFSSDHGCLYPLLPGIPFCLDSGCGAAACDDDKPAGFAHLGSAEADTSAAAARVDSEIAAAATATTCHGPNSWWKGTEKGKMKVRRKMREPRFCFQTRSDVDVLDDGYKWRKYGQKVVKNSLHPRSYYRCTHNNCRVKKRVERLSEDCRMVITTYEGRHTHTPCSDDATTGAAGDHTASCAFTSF
# PROTOCOL_NOTES: protein-binding microarray (RPBM); PBS, 2% BSA, 51.3 ng/ul salmon testes DNA, 50 uM zinc acetate, 200 nM TF, 25 C, 1 h; high values mean tight binding
# MEASUREMENT_SETUP: protein: recombinant; tags: N-terminal polyhistidine and DsRed monomer fusion (pET32a); label: CyDye5-dUTP incorporated in the synthesized complementary strand; 3' TTTTT single-stranded linker to array surface; dsDNA, one strand shown
Whole data set: some 68,000 sequences, median “fluorescence intensity (a.u.)” near 9,100, cut for the highest 2% near 16,000. The full list was thinned out, with the highest values kept by preference.
REPORTED_METRIC: binding signal

>>> print(df.to_string())
                             sequence_chain                              assay_system  reported_metric                      recorded_result
0  CCTCTTCGAAGCCGTGAAATCTCAGCCGTCCATCCATGATCGGAGTCACCTAGTGCAG  OsWRKY34 (Oryza sativa, UniProt Q0JBA9 1-250)   binding signal   9040 fluorescence intensity (a.u.)
1  CGCTCACTCGTCTCCTCTCGGTTTCTTTCTCTCTCTCTCTCGGAGTCACCTAGTGCAG  OsWRKY34 (Oryza sativa, UniProt Q0JBA9 1-250)   binding signal   8160 fluorescence intensity (a.u.)
2  GTATTGAGGGCTTAATCGTGGTCGTGGGATATTATTTCATCGGAGTCACCTAGTGCAG  OsWRKY34 (Oryza sativa, UniProt Q0JBA9 1-250)   binding signal   8390 fluorescence intensity (a.u.)
3  GAAAGATTTTCACCGTTTGGGTAGGTTGGGGATGGGATGACGGAGTCACCTAGTGCAG  OsWRKY34 (Oryza sativa, UniProt Q0JBA9 1-250)   binding signal  11400 fluorescence intensity (a.u.)
4  AGGTGATGTTTGGGGTCGTTGGGTTGGTCCGCGTTCTTGCCGGAGTCACCTAGTGCAG  OsWRKY34 (Oryza sativa, UniProt Q0JBA9 1-250)   binding signal  17400 fluorescence intensity (a.u.)

###

# ASSAY_SYSTEM: OsWRKY34 (Oryza sativa, UniProt Q0JBA9 1-250)
# PROTOCOL_NOTES: protein-binding microarray (RPBM); PBS, 2% BSA, 51.3 ng/ul salmon testes DNA, 50 uM zinc acetate, 200 nM TF, 25 C, 1 h; high values mean tight binding
# MEASUREMENT_SETUP: protein: recombinant; tags: N-terminal polyhistidine and DsRed monomer fusion (pET32a); label: CyDye5-dUTP incorporated in the synthesized complementary strand; 3' TTTTT single-stranded linker to array surface; dsDNA, one strand shown
Whole data set: some 68,000 sequences, median “fluorescence intensity (a.u.)” near 9,100, cut for the highest 2% near 16,000. Shown is part of a subset that was picked to be rich in the highest values.
REPORTED_METRIC: binding signal

>>> print(df.to_string())
                              sequence_chain  reported_metric                      recorded_result
 0  ACTTCTTCTACGTGATTTCCTGATTCGCCTCATCCGCTTCCGGAGTCACCTAGTGCAG   binding signal   9060 fluorescence intensity (a.u.)
 1  TCTAGGGTTAGGGTTTCGTGATTTTTGGTTTTTTATTTTTCGGAGTCACCTAGTGCAG   binding signal  16900 fluorescence intensity (a.u.)
 2  TATACAATTGCCTTACCTGTCCCCACCTGTCACATGCCTCCGGAGTCACCTAGTGCAG   binding signal   9460 fluorescence intensity (a.u.)
 3  CAGCCGCCCTACGTCAGCCAAGTCCAACGACAACGCCCAACGGAGTCACCTAGTGCAG   binding signal   8200 fluorescence intensity (a.u.)
 4  GCGTGTGTTGTGAGATGTATTATGTTGTGCTTTGTATTTTCGGAGTCACCTAGTGCAG   binding signal  14900 fluorescence intensity (a.u.)
 5  CGGCCCAAGCTTCATTGACAAATTGTCTTGAATTTGTACACGGAGTCACCTAGTGCAG   binding signal   8510 fluorescence intensity (a.u.)
 6  GGTTGAAGTTTTTGGCAGGGGTTAGTTTCGAAATAAGTTTCGGAGTCACCTAGTGCAG   binding signal  17900 fluorescence intensity (a.u.)
 7  TTGAAGTTTTTGGCAGGGGTTAGTTTCGAAATAAGTTTTCCGGAGTCACCTAGTGCAG   binding signal   8480 fluorescence intensity (a.u.)
 8  GTTGAAGTTTTTGGCAGGGGTTAGTTTCGAAATAAGTTTTCGGAGTCACCTAGTGCAG   binding signal   8170 fluorescence intensity (a.u.)
 9  AGTAGTCCTTCAAGCTCCAATCATATACCCCTGATACTAACGGAGTCACCTAGTGCAG   binding signal   8300 fluorescence intensity (a.u.)
10  GTCTGTGAATGTTTTATTTGCCTTGTCTGAACTATCTTTACGGAGTCACCTAGTGCAG   binding signal  11400 fluorescence intensity (a.u.)
11  TCATCCCACCGACGTCAGCAAGCCATCGCCATCAAGCCCACGGAGTCACCTAGTGCAG   binding signal   9760 fluorescence intensity (a.u.)
12  TTTTATGTTTGTTGGTTGTTGAGTTTATGTGATTATATTTCGGAGTCACCTAGTGCAG   binding signal   9050 fluorescence intensity (a.u.)
13  CGGGGCGTGAGGGGTTATGAGTATATTTGTATTTTTTTTTCGGAGTCACCTAGTGCAG   binding signal  18400 fluorescence intensity (a.u.)
14  AGAACAGTTTTTAATCTGACATGTGCCTGTAGTTTGTTGTCGGAGTCACCTAGTGCAG   binding signal  10600 fluorescence intensity (a.u.)
15  TCCCTAAAATTTTTCACCCTTTCACATTAAACGTTTAACACGGAGTCACCTAGTGCAG   binding signal  11400 fluorescence intensity (a.u.)
16  CGGGCGATTCTAGGGTTATGGTTAGGGTTTTTTTTATTTTCGGAGTCACCTAGTGCAG   binding signal  14500 fluorescence intensity (a.u.)
17  GTTAGGGTTTTTTTTATTTTTCGATTTTTTTTGTGTTTTTCGGAGTCACCTAGTGCAG   binding signal  12000 fluorescence intensity (a.u.)
18  TAGGGGTGGGCATTCGGTCTAACTGAAAATTTCGGTCTCGCGGAGTCACCTAGTGCAG   binding signal  13500 fluorescence intensity (a.u.)
